# METHOD_NOTES: in vivo
# CONDITION_CONTEXT: male, Sprague-Dawley, rat, in vivo, po, 200 mg/kg
ENDPOINT: AUC(0-t) (µM·h)
Hi! Could you send only the number? It should be in µM·h, unit omitted.

Form: compound = `C=CC(=O)Oc1ccc(Cl)cc1C(=O)Nc1ccc([N+](=O)[O-])cc1Cl` ; AUC(0-t) = 6.37

---

# METHOD_NOTES: in vivo
# CONDITION_CONTEXT: male, Sprague-Dawley, rat, in vivo, po, 200 mg/kg
ENDPOINT: Cmax (nM)
Please state the figure in nM; there is no need to write the unit.

For this compound ( `C=CC(=O)Oc1ccc(Cl)cc1C(=O)Nc1ccc([N+](=O)[O-])cc1Cl` ), measured Cmax is 2690

---

# METHOD_NOTES: Oral pharmacokinetics in rat plasma (LC-MS)
# CONDITION_CONTEXT: male, Sprague-Dawley, rat, plasma, po, 200 mg/kg
ENDPOINT: AUC(0-inf) (µM·h)
The reply should contain only the number, in µM·h.

Reported AUC(0-inf) for O=C(Nc1ccc([N+](=O)[O-])cc1Cl)c1cc(Cl)ccc1O [niclosamide, reference compound] was 28.4

---

# System: CWR22Rv1 cells
# METHOD_NOTES: Cell growth assay (cell numbers), CWR22Rv1
# Assay type: cell-based
# CONDITION_CONTEXT: CWR22Rv1, analog 0.25 μM + bicalutamide 20 μM, 0, 3, 5 days, FIG. 12
ENDPOINT: cell growth, combination with bicalutamide

INSERT INTO measurements (smiles_repr, measured) VALUES
  ('COC(=O)COc1ccc(Cl)cc1C(=O)Nc1ccc([N+](=O)[O-])cc1Cl', 'not able to inhibit'),
  ('O=C(Nc1ccc([N+](=O)[O-])cc1Cl)c1cccc(Cl)c1', 'not able to inhibit');

---

# System: CWR22Rv1 cells
# METHOD_NOTES: Cell growth assay (cell numbers), CWR22Rv1
# Type: cell-based
# CONDITION_CONTEXT: CWR22Rv1, analog 0.25 μM + enzalutamide 20 μM, 0, 3, 5 days, FIGS. 9, 11
# Protocol: DMSO treatment was used as a negative control. Total cell numbers were counted at 0, 3, and 5 days. DMSO treatment was used as a negative control. Total cell numbers were counted at 0, 3, and 5 days. […] The cell growth was determined at 3,5 days. […] The cell growth was determined at 3,5 days.
ENDPOINT: cell growth, combination with enzalutamide

INSERT INTO measurements (smiles_repr, measured) VALUES
  ('C=CC(=O)Oc1ccc(Cl)cc1C(=O)Nc1ccc([N+](=O)[O-])cc1Cl', 'significantly inhibited'),
  ('CCC(=O)Oc1ccc(Cl)cc1C(=O)Nc1ccc([N+](=O)[O-])cc1Cl', 'significantly inhibited');

---

# Test system: AR
# METHOD_NOTES: Western blot of AR expression in CWR22Rv1 cell lysates
# Format: cell-based
# CONDITION_CONTEXT: CWR22Rv1 cells, FIG. 2A
ENDPOINT: AR expression

Here's what some known entries look like.
INSERT INTO results (compound, endpoint, measured) VALUES
  ('CC(C)(C)OC(=O)COc1ccc(Cl)cc1C(=O)Nc1ccc([N+](=O)[O-])cc1Cl [Compound 35]', 'AR expression', 'no effect'),
  ('COC(=O)COc1ccc(Cl)cc1C(=O)Nc1ccc([N+](=O)[O-])cc1Cl [Compound 34]', 'AR expression', 'no effect'),
  ('C=CC(=O)Oc1ccc(Cl)cc1C(=O)Nc1ccc([N+](=O)[O-])cc1Cl [Compound 31]', 'AR expression', 'inhibited'),
  ('O=C(Nc1ccc(C(F)(F)F)cc1Cl)c1cc(Cl)ccc1O [Compound 7]', 'AR expression', 'inhibited');

Proceed to the following item.
Entry O=C(Nc1cc(C(F)(F)F)cc(C(F)(F)F)c1)c1cc(Cl)ccc1O [Compound 5] ; AR expression = inhibited
